Target: HLA-A*0201 (Homo sapiens, UniProt P04439, D140Y/D185E/D98H/E176V/E277Q/G131W/G231S/I119V/I121R/I166T/I218V/L300P/L318F/N151K/N90K/P208A/P217A/Q86G/Q94H/R138H/R169H/T345S)
Assay: HLA class I peptide binding assay
Conditions: Malaria A02 motif peptides, Table VIII; unit not given
TEST_READOUT: A*0201 (binding information)

sequence_data=ALLQVRKHL result=0.0010
sequence_data=VIGPFMKAV result=0.0004
sequence_data=LLGGVCLVL result=0.0038

====

Molecular target: DRB1*1201 (DR5w12) (Homo sapiens, UniProt P01903+P01911, A100R/A169T/D57E/D86V/F55L/H45Y/K41T/L162R/M171V/P40S/Q125H/Q178H/Q39Y/Q99D/R42G/S66L/T262R/V114A/V67L/W38E/Y59H/Y61H/Y89S)
Construct: endogenous in cells; host or cells: Herluf
Test: HLA class II peptide binding assay
Settings: Table XIXb; DR5w12
TEST_READOUT: DR5w12 binding data

sequence_data=LHEGCTSEL test_readout="DR5w12 binding data" quantitative_readout=0.0001
sequence_data=WVNHAVPLA test_readout="DR5w12 binding data" quantitative_readout=0.0240
sequence_data=VNDFQISKY test_readout="DR5w12 binding data" quantitative_readout=0.0001
sequence_data=WDEWSPCSV test_readout="DR5w12 binding data" quantitative_readout=0.0001
sequence_data=YDNAGINLY test_readout="DR5w12 binding data" quantitative_readout=0.0001
sequence_data=YLLMDCSGS test_readout="DR5w12 binding data" quantitative_readout=0.0001
sequence_data=LAILSVSSF test_readout="DR5w12 binding data" quantitative_readout=0.1200
sequence_data=LIFFDLFLV test_readout="DR5w12 binding data" quantitative_readout=0.0016
sequence_data=LEEKAAKET test_readout="DR5w12 binding data" quantitative_readout=0.0001
sequence_data=LETVNISDV test_readout="DR5w12 binding data" quantitative_readout=0.0015
sequence_data=VVPGAATPY test_readout="DR5w12 binding data" quantitative_readout=0.0061
sequence_data=LALFFIIFN test_readout="DR5w12 binding data" quantitative_readout=0.0002
sequence_data=LAMKLIQQL test_readout="DR5w12 binding data" quantitative_readout=0.1300
sequence_data=LGGVGLVLY test_readout="DR5w12 binding data" quantitative_readout=0.0004
sequence_data=VDLYLLMDC test_readout="DR5w12 binding data" quantitative_readout=0.0001
sequence_data=VEKTASCGV test_readout="DR5w12 binding data" quantitative_readout=0.0001
sequence_data=LTDGIPDSI test_readout="DR5w12 binding data" quantitative_readout=0.0001
sequence_data=IAGGLALLA test_readout="DR5w12 binding data" quantitative_readout=0.0007
sequence_data=LALLACAGL test_readout="DR5w12 binding data" quantitative_readout=0.0051
sequence_data=VHDLISDMI test_readout="DR5w12 binding data" quantitative_readout=0.0001
sequence_data=YGRLEIPAI test_readout="DR5w12 binding data" quantitative_readout=0.0002

====

Biological target: DRB1*0802 (DR8w2) (Homo sapiens, UniProt P01903+P01911, A100R/A103L/A169T/F76Y/H45Y/I96F/K41T/L162R/M171V/P40S/Q125H/Q178H/Q39Y/Q99D/R218S/R42G/S66Y/V115G/W38E)
Construct: endogenous in cells; host or cells: OLL
Assay: biochemical
Format: binding
pIC50: −log10 of the molar value. No end group written: not given here.
TEST_READOUT: pIC50

sequence_data="PDSIQDSLKESRKLN [Peptide 35.0171]" result="< 4.70"
